// reported %Inh for each item listed
Test system: DCAMKL2;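 note: KINOMEscan kinase panel screen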
Construct: gene DCLK2
Conditions: concentration: 1 μM, replicates: in singlicate; n = 1
Only the number, expressed in %, is required.

Guide cases for %Inh, answers given:
CCn1c(-c2c(N)noc2C)nc2cnccc21 :: 30
COc1ccc(Nc2nccc(N3CCC(NC(=O)c4cc5ccccc5s4)C3)n2)cc1 (stereo not drawn) :: 0
Cc1ccc(NC(=O)Nc2ccc(Cl)c(C(F)(F)F)c2)cc1-c1ccc(C(=O)Nc2ccncc2)cc1 :: 11
Cc1cccc2c(-c3ccncn3)c(-c3ccc(F)cc3)nn12 :: 0
COc1nccc(-c2c(-c3ccc(F)cc3)ncn2CCCN2CCOCC2)n1 :: 0
Cn1cnc2c(N)ncnc21 :: 0

For record COc1ccc(CSc2nnc(-c3ccc4ncsc4c3)o2)cc1C(F)(F)F the listed %Inh is 0

For record CC(=O)c1cccc(NC(=O)NC2CCN(c3ccnc(Nc4ccc(F)cc4)n3)C2)c1 (stereo not drawn) the listed %Inh is 11

For record CN1c2ccc(-c3ccc(C(N)=O)cc3)cc2-c2[nH]ncc2S1(=O)=O the listed %Inh is 0

For record CS(=O)(=O)CCNCc1nc(-c2ccc3ncnc(Nc4ccc5c(cnn5Cc5ccccc5)c4)c3c2)cs1.Cl.Cl the listed %Inh is 0
